B1: Osa-1-4 twister ribozyme (parent)
chain: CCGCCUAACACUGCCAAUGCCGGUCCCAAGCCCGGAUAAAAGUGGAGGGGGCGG

# Variants of: B1
# Procedure Details: self-cleavage, relative activity (ratio to wild type); higher = more cleavage; co-transcriptional
A collection of variants and their measured self-cleavage

>  <Chain>
CCGCCUUACACUGCCAAUGCCGGUCCCAAGCCCGGAUAAAAGUGGAGGGGGCAG

>  <self-cleavage>
0.08

$$$$
>  <Chain>
CCGCCUAACAGUGCAAAUGCCGGUCCCAAGCCCGGAUAAAAGUGGAGGGGGCGG

>  <self-cleavage>
0.09

$$$$
>  <Chain>
CCGCCUAACACUGCCAAUGCCGGUCCCAAGCCCGGAUAAAAGUGGCGGGGACGG

>  <self-cleavage>
0.07

$$$$
>  <Chain>
CCGCCUAACACUGCCAAUGCCGGUCCCAAGCCCGGGUAAAAGUGGAGGGGGCGA

>  <self-cleavage>
1.04

$$$$
>  <Chain>
CCGCCUACCAUUGCCAAUGCCGGUCCCAAGCCCGGAUAAAAGUGGAGGGGGCGG

>  <self-cleavage>
0.09

$$$$
>  <Chain>
CCGCCUAACACUGCCAAUGCCGGUCACAAGCCUGGAUAAAAGUGGAGGGGGCGG

>  <self-cleavage>
0.04

$$$$
>  <Chain>
CCGCCUAACACUGCCAAUGCCGGUUCCAAGCCCAGAUAAAAGUGGAGGGGGCGG

>  <self-cleavage>
0.85

$$$$
>  <Chain>
CCGCCUAACACUGCCAAUGACGGUCCCAAGCCCGGAUAAAAGCGGAGGGGGCGG

>  <self-cleavage>
0.58

$$$$
>  <Chain>
CCGCCUAACACUGCCAAUGCCUGUCGCAAGCCCGGAUAAAAGUGGAGGGGGCGG

>  <self-cleavage>
0.08

$$$$
>  <Chain>
CCGCCUAACACUGCCAAUGCCGGUCCAAAGCCCGGAUAAAAGUGGAGAGGGCGG

>  <self-cleavage>
0.04

$$$$
>  <Chain>
CCGCCUAACACUGGCAAUGCCGGUGCCAAGCCCGGAUAAAAGUGGAGGGGGCGG

>  <self-cleavage>
0.07

$$$$
>  <Chain>
CCGCCUAACAUUGCCAAUGCCGGUGCCAAGCCCGGAUAAAAGUGGAGGGGGCGG

>  <self-cleavage>
0.05

$$$$
>  <Chain>
CCGCCUAACACUGCCAAUGCCGCUCCCAAGCCCGGAUAAAAGUGGAUGGGGCGG

>  <self-cleavage>
0.03

$$$$
>  <Chain>
CCGCCUAAGACUGCCAAUGCCGGUCCCAAGCCCGGAUAAAAGUGGAGGGCGCGG

>  <self-cleavage>
0.59

$$$$
>  <Chain>
CCGCCUAACACUGCCAAUGCCGGUCCCAAGCCCGGGUAAAAGUGGAUGGGGCGG

>  <self-cleavage>
0.47

$$$$
>  <Chain>
CCGCCUAACACUGCCAAUGCCGGACCCAAGCCCGGAUACAAGUGGAGGGGGCGG

>  <self-cleavage>
0.05

$$$$
>  <Chain>
CCGCCUAACACUGCCAAUGCCGGUCCCAAGGCCAGAUAAAAGUGGAGGGGGCGG

>  <self-cleavage>
0.11

$$$$
>  <Chain>
CCGCCUAACACUGCCAAUGCCGGUCCCAAGCCCGGUUAAAAGUGGAGGGGGCGC

>  <self-cleavage>
0.96

$$$$
>  <Chain>
CCGCCUAAUACUGCCAAUGCCGGUCCCAAGCCCGGAUAAAAGUCGAGGGGGCGG

>  <self-cleavage>
0.67

$$$$
>  <Chain>
CCGCCUAACACUACCAAUGCCGGUCCCAUGCCCGGAUAAAAGUGGAGGGGGCGG

>  <self-cleavage>
0.04

$$$$
>  <Chain>
CCGCCUAAGACUGCCAAUGCCGGUCACAAGCCCGGAUAAAAGUGGAGGGGGCGG

>  <self-cleavage>
0.05

$$$$
>  <Chain>
CCGCCUAACACUGCCAAUGCCGGUCCCACGCCCGGAUAAAAGUGGAGAGGGCGG

>  <self-cleavage>
0.01

$$$$
>  <Chain>
CCGCCUAACACUGCCAAUGCCGUUCCCAAGCCCGGAGAAAAGUGGAGGGGGCGG

>  <self-cleavage>
0.19

$$$$
>  <Chain>
CCGCCUCACACUGCCAAUGCCGGUCCCAAGCCCGGAUAAAAGUAGAGGGGGCGG

>  <self-cleavage>
0.05

$$$$
>  <Chain>
CCGCCUCACACAGCCAAUGCCGGUCCCAAGCCCGGAUAAAAGUGGAGGGGGCGG

>  <self-cleavage>
0.05

$$$$
>  <Chain>
CCGCCUAACACUGCCAAUGCCGAUCCCAAGCGCGGAUAAAAGUGGAGGGGGCGG

>  <self-cleavage>
0.27

$$$$
>  <Chain>
CCGCCUAACACUGCCAAUGACGGUCCCAAGCCCGAAUAAAAGUGGAGGGGGCGG

>  <self-cleavage>
0.88

$$$$
>  <Chain>
CCGCCUCACACUGCCAAUGCCGGUCCCAAGCCCGGAUAAAAGUGGAGGGUGCGG

>  <self-cleavage>
0.04

$$$$
>  <Chain>
CCGCCUACCACUGCCAAUGCCGGUUCCAAGCCCGGAUAAAAGUGGAGGGGGCGG

>  <self-cleavage>
0.07

$$$$
>  <Chain>
CCGCCUAACACCGCCAAUGCCGGUCCCAAGCCCGGAUAAAAGUGGAGGGUGCGG

>  <self-cleavage>
0.62

$$$$
>  <Chain>
CCGCCUAACACUGCCAAUGCCGGUCCCAAGCCCGGGUAAAAGUGCAGGGGGCGG

>  <self-cleavage>
0.07

$$$$
>  <Chain>
CCGCCUAACACUGCCAAUGCCGGUCCCAAGCCCGGAUAAAAGUGUAGGGGGCGC

>  <self-cleavage>
0.06

$$$$
>  <Chain>
CCGCCUAACACUGCCAAUGCGGGUCCCAAGCCCCGAUAAAAGUGGAGGGGGCGG

>  <self-cleavage>
0.83

$$$$
>  <Chain>
CCGCCUAGCACUGCCAAUACCGGUCCCAAGCCCGGAUAAAAGUGGAGGGGGCGG

>  <self-cleavage>
0.15

$$$$
>  <Chain>
CCGCCUAACACUGUCAAUGCCGGUCCCGAGCCCGGAUAAAAGUGGAGGGGGCGG

>  <self-cleavage>
0.11

$$$$
>  <Chain>
CCGCCUACCACAGCCAAUGCCGGUCCCAAGCCCGGAUAAAAGUGGAGGGGGCGG

>  <self-cleavage>
0.06

$$$$
>  <Chain>
CCGCCUAACACUGCCAAUGCCGGUCCCAAGCCCGGAUAAAAGUGGAGGUGGCAG

>  <self-cleavage>
0.07

$$$$
>  <Chain>
CCGCCUAACACUGCCCAUGCCGGUCCCAAGCCCGGAUAAAAGUGGAGGAGGCGG

>  <self-cleavage>
0.09

$$$$
>  <Chain>
CCGCCUAACACUGCCAAUGCCGGUCCCAAGCCCGGAUACAAGUGGAGGGGGAGG

>  <self-cleavage>
1

$$$$
>  <Chain>
CCGCCUAACACUGCCAAUGCCGGUCCCAACCCCGGAUAAAAGUGGGGGGGGCGG

>  <self-cleavage>
0.01

$$$$
>  <Chain>
CCGCCUAACACUGCCAAUGCCGAUCCCAAACCCGGAUAAAAGUGGAGGGGGCGG

>  <self-cleavage>
0.04

$$$$
>  <Chain>
CCGCCUAACACUGCCAAUGCCGGUCUCAAGCCCGGAUAAAAGUGAAGGGGGCGG

>  <self-cleavage>
0.07

$$$$
>  <Chain>
CCGCCUAACACUGCCAAUGCCGGUCCCAAGCCCGGAUAAAAGUGGCGGGGGCUG

>  <self-cleavage>
0.08

$$$$
>  <Chain>
CCGCCUAACACUGCCAAUGCCGGUCCCAAGUCCGGAUAAUAGUGGAGGGGGCGG

>  <self-cleavage>
0.2

$$$$
>  <Chain>
CCGCCUAACACUGCCAAUGCCGGUCCCAAGCCCGGAUAAGAGUGGGGGGGGCGG

>  <self-cleavage>
0.05

$$$$
>  <Chain>
CCGCCUAACACUGCCAGUGCCGGUCCCAAGCCCGGAUAAAAAUGGAGGGGGCGG

>  <self-cleavage>
0.58

$$$$
